// provenance: ChEMBL document CHEMBL5724801

- System: U2OS
- TEST: Multiplex assay against U2OS
- Type: toxicity, cell-based
- CONDITION_LABEL: human, 24 h, 10 µM, compound concentration 10 uM
REPORTED_ENDPOINT: Population Normal (%)
Your answer should be a plain number; it is taken to be in %.

>>> endpoint_result("CCN1CCN(Cc2ccc(Nc3ncc(F)c(-c4cc(F)c5nc(C)n(C(C)C)c5c4)n3)nc2)CC1.CS(=O)(=O)O")
100
>>> endpoint_result("CCCCCCNC(=O)Nc1ccc(S(=O)(=O)Nc2ccc(CCNC[C@H](O)COc3ccc(O)cc3)cc2)cc1 [L-755507]")
97
>>> endpoint_result("COc1cc2ncnc(Nc3ccc(Oc4ccccc4)cc3C)c2cc1OC.Cl")
100
>>> endpoint_result("COCCn1c(C)c(C)s/c1=N\\C(=O)C1C(C)(C)C1(C)C")
98

Please look at the following molecule next.
*Q* Look up Population Normal (%) of "O=C1N=C(NCc2cccs2)S/C1=C\c1ccc2ncccc2c1" and report it.
*A* 100

====

- Tested on: Fibroblast
- TEST: Multiplex assay against human fibroblast
- Assay type: toxicity, cell-based
- CONDITION_LABEL: 12 h, 10 µM, compound concentration 10 uM
REPORTED_ENDPOINT: Population Pyknosed Nuclei (%)
Your answer should be a plain number; it is taken to be in %.

>>> endpoint_result("Cl.NCCc1ccc(O)c(O)c1 [DOPAMINE HYDROCHLORIDE]")
23

*Q* Look up Population Pyknosed Nuclei (%) of "O=C(O)Cc1ccccc1Nc1c(Cl)cccc1Cl" and report it.
*A* 17

*Q* Look up Population Pyknosed Nuclei (%) of "N[C@](CC1c2ccccc2Oc2ccccc21)(C(=O)O)[C@H]1C[C@@H]1C(=O)O" and report it.
*A* 20

*Q* Look up Population Pyknosed Nuclei (%) of "CSc1nc(NC2CCCC2)c([N+](=O)[O-])c(NC2CCCC2)n1" and report it.
*A* 21

====

Population Hoechst High Intensity Objects (%): recorded values
- Test system: U2OS
- TEST: Multiplex assay against U2OS
- Assay type: toxicity, cell-based
- CONDITION_LABEL: human, 12 h, 1 µM, compound concentration 1 uM

>>> endpoint_result("C=C(C)[C@H]1CN[C@H](C(=O)O)[C@H]1CC(=O)O")
"0%"

*Q* Look up Population Hoechst High Intensity Objects (%) of "COc1c(C)cc(NC(=O)c2nn(Cc3ccc(F)cc3)c3c2CN(C(=O)c2ccc[nH]2)C[C@]3(C)C(N)=O)cc1C" and report it.
*A* 2%

*Q* Look up Population Hoechst High Intensity Objects (%) of "S=c1[nH]nc(-c2cccs2)n1-c1ccccc1" and report it.
*A* 0%

====

- System: U2OS
- TEST: Multiplex assay against U2OS
- Type: toxicity, cell-based
- CONDITION_LABEL: human, 24 h, 1 µM, compound concentration 1 uM
REPORTED_ENDPOINT: Population Normal (%)
Your answer should be a plain number; it is taken to be in %.

>>> endpoint_result("O=C1N=C(NCc2cccs2)S/C1=C\\c1ccc2ncccc2c1")
100

Please look at the following compound next.
*Q* Look up Population Normal (%) of "CC(C)c1ccc(/C=N/NC(=O)c2ccc(O)cc2)cc1" and report it.
*A* 100
